So I've got a bunch of molecules here, and I need their hepatic extraction ratio values.
assay: Metabolic stability in mouse liver microsomes assessed as hepatic extraction ratio by LC/MS/MS analysis; assay type: ADME, Microsome
Response field accepts a number only; no unit should be typed.

Sample "CC1(C)NCCn2c1nc(-c1ccc(F)cc1)c2Nc1ccc(F)cc1" — what was its hepatic extraction ratio? 0.8

Please report the recorded hepatic extraction ratio for "Cc1ccc(Nc2c(-c3ccc(F)cc3)nc3n2CC(=O)NC3(C)C)cc1" . 0.72

For "Cc1ccc(Nc2c(-c3ccc(F)cc3)nc3n2CC(=O)NC3)cc1" , what is its reported hepatic extraction ratio? 0.7

Quick one: hepatic extraction ratio of "Cc1ccc(Nc2c(-c3ccc(F)cc3)nc3n2CCNC3)cc1" ? 0.8

Look at this molecule and give its reported hepatic extraction ratio. "Cc1ccc(Nc2c(-c3ccc(F)cc3)nc3n2CCNC3(C)C)cc1" 0.77
